The values you see were collected from PubChem BioAssay AID1919004.

# Test system: 883617-216-R-J1-PDC complex spheroids, growth, % test/control
# TEST PROTOCOL: Anticancer human tumor 883617-216-R-J1-PDC patient-derived bladder carcinoma cell line growth inhibition [AhR]; active = viability on the fitted dose curve at most 10% of control; inactive = the rest
# CONDITION DETAILS: second compound 0.316 µM; first compound 0.0949 µM
Outcome codes: active, inactive

INSERT INTO results (molecule, class_label) VALUES
  ('CCc1c2c(nc3ccc(O)cc13)-c1cc3c(c(=O)n1C2)COC(=O)[C@]3(O)CC + Cc1ccccc1N=Nc1ccc(NC(=O)c2ccnn2C)c(C)c1', 'inactive'),
  ('CC(C)CC(NC(=O)C(Cc1ccccc1)NC(=O)c1cnccn1)B(O)O (centres undefined) + CC(CO)NC(=O)c1cc(-c2ccc(Cl)cc2)nn(-c2cnn(C)c2)c1=O', 'active'),
  ('Nc1ncn(C2CC(O)C(CO)S2)c(=O)n1 (centres undefined) + CC(CO)NC(=O)c1cc(-c2ccc(Cl)cc2)nn(-c2cnn(C)c2)c1=O', 'inactive'),
  ('CCN(c1cc(-c2ccc(CN3CCOCC3)cc2)cc(C(=O)NCc2c(C)cc(C)[nH]c2=O)c1C)C1CCOCC1 + CC(CO)NC(=O)c1cc(-c2ccc(Cl)cc2)nn(-c2cnn(C)c2)c1=O', 'inactive'),
  ('CC(C)CC(NC(=O)C(Cc1ccccc1)NC(=O)c1cnccn1)B(O)O (centres undefined) + Cc1ccccc1N=Nc1ccc(NC(=O)c2ccnn2C)c(C)c1', 'active'),
  ('CCN(c1cc(-c2ccc(CN3CCOCC3)cc2)cc(C(=O)NCc2c(C)cc(C)[nH]c2=O)c1C)C1CCOCC1 + Cc1cncc(-c2nc(NCCc3c[nH]c4ccccc34)c3ncn(C(C)C)c3n2)c1', 'inactive'),
  ('CCN(c1cc(-c2ccc(CN3CCOCC3)cc2)cc(C(=O)NCc2c(C)cc(C)[nH]c2=O)c1C)C1CCOCC1 + Cc1ccccc1N=Nc1ccc(NC(=O)c2ccnn2C)c(C)c1', 'inactive'),
  ('CCc1c2c(nc3ccc(O)cc13)-c1cc3c(c(=O)n1C2)COC(=O)[C@]3(O)CC + CC(CO)NC(=O)c1cc(-c2ccc(Cl)cc2)nn(-c2cnn(C)c2)c1=O', 'inactive'),
  ('Nc1ncn(C2CC(O)C(CO)S2)c(=O)n1 (centres undefined) + Cc1cncc(-c2nc(NCCc3c[nH]c4ccccc34)c3ncn(C(C)C)c3n2)c1', 'inactive');

###

Listing of entries alongside the reported viability, T/C.
# Tested on: 883617-216-R-J1-PDC complex spheroids, growth, % test/control
# TEST PROTOCOL: Anticancer human tumor 883617-216-R-J1-PDC cell line growth inhibition [AhR];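 note: exposure lasted 7 days after dosing on day 3 of spheroid growth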
# CONDITION DETAILS: second compound 1 µM; first compound 0.0316 µM; hits give low values
MEASUREMENT NAME: viability, T/C (%)

INSERT INTO assay_data (molecule, measurement) VALUES
  ('CC(C)c1c(-c2ccccc2)nc2c(C#N)c[nH]n2c1=O + Cc1ccccc1N=Nc1ccc(NC(=O)c2ccnn2C)c(C)c1', 84),
  ('CC1COCCN1c1cc(C2(S(C)(=N)=O)CC2)nc(-c2ccnc3[nH]ccc23)n1 (configuration not stated) + CC(CO)NC(=O)c1cc(-c2ccc(Cl)cc2)nn(-c2cnn(C)c2)c1=O', 142),
  ('CC1COCCN1c1cc(-c2ccnn2C)c2ccnc(-c3ccn[nH]3)c2n1 (configuration not stated) + CC(CO)NC(=O)c1cc(-c2ccc(Cl)cc2)nn(-c2cnn(C)c2)c1=O', 114),
  ('CC[C@@]1(O)C(=O)OCc2c1cc1n(c2=O)Cc2cc3c(CN(C)C)c(O)ccc3nc2-1 + Cc1cncc(-c2nc(NCCc3c[nH]c4ccccc34)c3ncn(C(C)C)c3n2)c1', 88.9),
  ('Nc1ccccc1NC(=O)c1ccc(CNC(=O)OCc2cccnc2)cc1 + Cc1ccccc1N=Nc1ccc(NC(=O)c2ccnn2C)c(C)c1', 87.6),
  ('O=C(C=Cc1cccc(S(=O)(=O)Nc2ccccc2)c1)NO + CC(CO)NC(=O)c1cc(-c2ccc(Cl)cc2)nn(-c2cnn(C)c2)c1=O', 75.3),
  ('CC1(C)CCC(CN2CCN(c3ccc(C(=O)NS(=O)(=O)c4ccc(NCC5CCOCC5)c([N+](=O)[O-])c4)c(Oc4cnc5[nH]ccc5c4)c3)CC2)=C(c2ccc(Cl)cc2)C1 + Cc1ccccc1N=Nc1ccc(NC(=O)c2ccnn2C)c(C)c1', 97.8),
  ('O=C(C=Cc1cccc(S(=O)(=O)Nc2ccccc2)c1)NO + Cc1cncc(-c2nc(NCCc3c[nH]c4ccccc34)c3ncn(C(C)C)c3n2)c1', 97.1),
  ('O=C(c1cc(Cc2n[nH]c(=O)c3ccccc23)ccc1F)N1CCN(C(=O)C2CC2)CC1 + Cc1cncc(-c2nc(NCCc3c[nH]c4ccccc34)c3ncn(C(C)C)c3n2)c1', 90),
  ('CC(C)c1c(-c2ccccc2)nc2c(C#N)c[nH]n2c1=O + Cc1cncc(-c2nc(NCCc3c[nH]c4ccccc34)c3ncn(C(C)C)c3n2)c1', 96.6),
  ('COc1cccc2c1C(=O)c1c(O)c3c(c(O)c1C2=O)CC(O)(C(=O)CO)CC3OC1CC(N)C(O)C(C)O1 (configuration not stated) + CC(CO)NC(=O)c1cc(-c2ccc(Cl)cc2)nn(-c2cnn(C)c2)c1=O', 95.2),
  ('COc1cccc2c1C(=O)c1c(O)c3c(c(O)c1C2=O)CC(O)(C(=O)CO)CC3OC1CC(N)C(O)C(C)O1 (configuration not stated) + Cc1ccccc1N=Nc1ccc(NC(=O)c2ccnn2C)c(C)c1', 56.8);

###

# Test system: 883617-216-R-J1-PDC complex spheroids, growth, % test/control
# TEST PROTOCOL: Anticancer human tumor 883617-216-R-J1-PDC cell line growth inhibition [AhR];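 note: exposure lasted 7 days after dosing on day 3 of spheroid growth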
# CONDITION DETAILS: second compound 10 µM; first compound 3.16 µM; hits give low values
MEASUREMENT NAME: viability, T/C

INSERT INTO assay_data (compound, measurement) VALUES
  ('Nc1ccccc1NC(=O)c1ccc(CNC(=O)OCc2cccnc2)cc1 + CC(CO)NC(=O)c1cc(-c2ccc(Cl)cc2)nn(-c2cnn(C)c2)c1=O', '61.1%'),
  ('COc1cc(Nc2ncc3c(n2)-c2ccc(Cl)cc2C(c2c(F)cccc2OC)=NC3)ccc1C(=O)O + Cc1ccccc1N=Nc1ccc(NC(=O)c2ccnn2C)c(C)c1', '58.7%'),
  ('NS(=O)(=O)OCC1CC(n2ccc3c(NC4CCc5ccccc54)ncnc32)CC1O (stereo unspecified) + CC(CO)NC(=O)c1cc(-c2ccc(Cl)cc2)nn(-c2cnn(C)c2)c1=O', '32.4%'),
  ('COc1cccc2c1C(=O)c1c(O)c3c(c(O)c1C2=O)CC(O)(C(=O)CO)CC3OC1CC(N)C(O)C(C)O1 (stereo unspecified) + Cc1ccccc1N=Nc1ccc(NC(=O)c2ccnn2C)c(C)c1', '0.18%'),
  ('Nc1ccn(C2OC(CO)C(O)C2(F)F)c(=O)n1 (stereo unspecified) + Cc1ccccc1N=Nc1ccc(NC(=O)c2ccnn2C)c(C)c1', '31.1%'),
  ('COc1cc(Nc2ncc3c(n2)-c2ccc(Cl)cc2C(c2c(F)cccc2OC)=NC3)ccc1C(=O)O + CC(CO)NC(=O)c1cc(-c2ccc(Cl)cc2)nn(-c2cnn(C)c2)c1=O', '71.7%');

###

# Tested on: 883617-216-R-J1-PDC complex spheroids, growth, % test/control
# TEST PROTOCOL: Anticancer human tumor 883617-216-R-J1-PDC cell line growth inhibition [AhR];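 note: exposure lasted 7 days after dosing on day 3 of spheroid growth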
# CONDITION DETAILS: second compound 0.316 µM; first compound 0.0316 µM; hits give low values
MEASUREMENT NAME: viability, T/C

INSERT INTO results (molecule, measurement) VALUES
  ('CC1COCCN1c1cc(-c2ccnn2C)c2ccnc(-c3ccn[nH]3)c2n1 (stereo unspecified) + Cc1ccccc1N=Nc1ccc(NC(=O)c2ccnn2C)c(C)c1', '85.9%'),
  ('Nc1ccn(C2OC(CO)C(O)C2(F)F)c(=O)n1 (stereo unspecified) + Cc1cncc(-c2nc(NCCc3c[nH]c4ccccc34)c3ncn(C(C)C)c3n2)c1', '34.5%'),
  ('CC1COCCN1c1cc(-c2ccnn2C)c2ccnc(-c3ccn[nH]3)c2n1 (stereo unspecified) + Cc1cncc(-c2nc(NCCc3c[nH]c4ccccc34)c3ncn(C(C)C)c3n2)c1', '98.5%'),
  ('Nc1ccn(C2OC(CO)C(O)C2(F)F)c(=O)n1 (stereo unspecified) + Cc1ccccc1N=Nc1ccc(NC(=O)c2ccnn2C)c(C)c1', '25.1%'),
  ('COc1cccc2c1C(=O)c1c(O)c3c(c(O)c1C2=O)CC(O)(C(=O)CO)CC3OC1CC(N)C(O)C(C)O1 (stereo unspecified) + CC(CO)NC(=O)c1cc(-c2ccc(Cl)cc2)nn(-c2cnn(C)c2)c1=O', '90.5%'),
  ('COc1ccc([C@@H](O)c2cc(-c3ncnc4cc(N5CCOCC5)ccc34)c(F)cc2Cl)nn1 + CC(CO)NC(=O)c1cc(-c2ccc(Cl)cc2)nn(-c2cnn(C)c2)c1=O', '69.9%');
